The measurements presented in this section are drawn from ChEMBL document CHEMBL1687815.

Test system: Acinetobacter baumannii
Experiment: Antimicrobial activity against Acinetobacter baumannii isolate H expressing beta-lactamase OXA-58 isolated from tracheal secretion of patient by vitek 2 system
Calls of active or inactive are those of the source. No cut-off for these calls is given here.
Measurement Label: MIC

>  <Molecule>
CO/N=C(\C(=O)N[C@@H]1C(=O)N2C(C(=O)[O-])=C(C[N+]3(C)CCCC3)CS[C@H]12)c1csc(N)n1

>  <Assay Value>
inactive

$$$$
>  <Molecule>
NCC[C@H](O)C(=O)N[C@@H]1C[C@H](N)[C@@H](O[C@H]2O[C@H](CN)[C@@H](O)[C@H](O)[C@H]2O)[C@H](O)[C@H]1O[C@H]1O[C@H](CO)[C@@H](O)[C@H](N)[C@H]1O

>  <Assay Value>
≥ 64 µg/mL

$$$$
>  <Molecule>
NC[C@H]1O[C@H](O[C@H]2[C@H](O)[C@@H](O[C@H]3O[C@H](CO)[C@@H](O)[C@H](N)[C@H]3O)[C@H](N)C[C@@H]2N)[C@H](N)C[C@@H]1O

>  <Assay Value>
≤ 1 µg/mL

$$$$
>  <Molecule>
COc1c(N2C[C@@H]3CCCN[C@@H]3C2)c(F)cc2c(=O)c(C(=O)O)cn(C3CC3)c12

>  <Assay Value>
inactive

$$$$
>  <Molecule>
O=C(O)c1cn(C2CC2)c2cc(N3CCNCC3)c(F)cc2c1=O

>  <Assay Value>
inactive

$$$$
>  <Molecule>
C[C@@H](O)[C@H]1C(=O)N2C(C(=O)O)=C(S[C@@H]3CN[C@H](C(=O)N(C)C)C3)[C@H](C)[C@H]12

>  <Assay Value>
8 µg/mL

$$$$
>  <Molecule>
CN(C)c1cc(NC(=O)CNC(C)(C)C)c(O)c2c1C[C@H]1C[C@H]3[C@H](N(C)C)C(O)=C(C(N)=O)C(=O)[C@@]3(O)C(O)=C1C2=O

>  <Assay Value>
≥ 8 µg/mL

$$$$
>  <Molecule>
CC(C)(O/N=C(\C(=O)N[C@@H]1C(=O)N2C(C(=O)[O-])=C(C[n+]3ccccc3)CS[C@H]12)c1csc(N)n1)C(=O)O

>  <Assay Value>
inactive

$$$$
>  <Molecule>
C[C@@H](O)[C@H]1C(=O)N2C(C(=O)O)=C(SCCNC=N)C[C@H]12 [IMIPENEM ANHYDROUS]

>  <Assay Value>
≥ 16 µg/mL

$$$$
>  <Molecule>
CO[C@@]1(NC(=O)Cc2cccs2)C(=O)N2C(C(=O)O)=C(COC(N)=O)CS[C@@H]21

>  <Assay Value>
inactive

$$$$
>  <Molecule>
C[C@@H]1O[C@@H]1P(=O)(O)O

>  <Assay Value>
inactive

$$$$
>  <Molecule>
CO/N=C(\C(=O)N[C@@H]1C(=O)N2C(C(=O)O)=C(COC(C)=O)CS[C@H]12)c1csc(N)n1

>  <Assay Value>
inactive

$$$$
>  <Molecule>
CCN1CCN(C(=O)N[C@@H](C(=O)N[C@@H]2C(=O)N3[C@@H]2SC(C)(C)[C@@H]3C(=O)O)c2ccccc2)C(=O)C1=O

>  <Assay Value>
inactive

$$$$
